test: Stability of cannabinoid and Vitamin E components of Beverage 2 (AB Red) stored at 8° C. and 21-25° C., LCMSMS over 570 days; details: 21-25° C., 25 days
Listing of recorded Stability of Cannabinoids in AB Red by entry.

Example compounds with recorded Stability of Cannabinoids in AB Red:
CCCCCc1cc(O)c2c(c1)OC1(C)CCC3C1C2C3(C)C (stereo not drawn)	0.51 µg/mL
CCCCCc1cc(O)c2c(c1)OC(C)(CCC=C(C)C)C=C2 (stereo not drawn)	0.28 µg/mL
C=C(C)[C@@H]1CCC(C)=C[C@H]1c1c(O)cc(CCCCC)c(C(=O)O)c1O	1.64 µg/mL
CCCCCc1cc2c(c(O)c1C(=O)O)[C@@H]1C=C(C)CC[C@H]1C(C)(C)O2 [D9 THCA, delta-9-tetrahydrocannabinolic acid]	1.35 µg/mL
CCCCCc1cc(O)c2c(c1)OC(C)(C)[C@@H]1CCC(C)=C[C@@H]21 [D9 THC, delta-9-tetrahydrocannabinol, reference compound]	12.5 µg/mL

Qu. Given the compound CCCCCc1cc(O)c(C/C=C(\C)CCC=C(C)C)c(O)c1 , what is its reported Stability of Cannabinoids in AB Red?
Ans. 4.56 µg/mL

Qu. Field request: Stability of Cannabinoids in AB Red | item: CCCCCc1cc(O)c2c(c1)OC(C)(C)c1ccc(C)cc1-2
Ans. 2.84 µg/mL

Qu. Entry under review: CCCc1cc(O)c2c(c1)OC(C)(C)[C@@H]1CCC(C)=C[C@@H]21 [THCV, delta-9-tetrahydrocannabivarin] . Reported Stability of Cannabinoids in AB Red?
Ans. 3.24 µg/mL

Qu. Reported Stability of Cannabinoids in AB Red, compound C=C(C)[C@@H]1CCC(C)=C[C@H]1c1c(O)cc(CCC)cc1O : ____
Ans. 0.19 µg/mL

###

experiment: Stability of cannabinoid and Vitamin E components of Beverage 2 (AB Red) stored at 8° C. and 21-25° C., LCMSMS over 570 days; settings: 21-25° C., 22 days
outcome measure: Stability of Cannabinoids in AB Red (µg/mL)
Report the value in µg/mL with no unit label.

CCCCCc1cc(O)c2c(c1)OC(C)(CCC=C(C)C)C=C2 (stereo not shown)	0.29
C=C(C)[C@@H]1CCC(C)=C[C@H]1c1c(O)cc(CCC)cc1O	0.20
CCCCCc1cc(O)c(C/C=C(\C)CCC=C(C)C)c(O)c1	4.71

Qu. Returns the measured Stability of Cannabinoids in AB Red for the input compound. Input: CCCCCc1cc(O)c2c(c1)OC(C)(C)[C@@H]1CCC(C)=C[C@@H]21 [D9 THC, delta-9-tetrahydrocannabinol, reference compound]
Ans. 12.9

###

Known Stability of Cannabinoids in AB Red of a selection of molecules
experiment: Stability of cannabinoid and Vitamin E components of Beverage 2 (AB Red) stored at 8° C. and 21-25° C., LCMSMS over 570 days; conditions: 8° C., 510 days
Kindly provide the numeric value in µg/mL only, without the unit symbol.

Example entries and their recorded answers appear below.
C=C(C)[C@@H]1CCC(C)=C[C@H]1c1c(O)cc(CCC)cc1O [CBDV, cannabidivarin]	0.184
CCCCCc1cc(O)c(C/C=C(\C)CCC=C(C)C)c(O)c1 [CBG, cannabigerol]	4.40
CCCc1cc(O)c2c(c1)OC(C)(C)[C@@H]1CCC(C)=C[C@@H]21 [THCV, delta-9-tetrahydrocannabivarin]	2.95

Qu. Reported Stability of Cannabinoids in AB Red, molecule CCCCCc1cc2c(c(O)c1C(=O)O)[C@@H]1C=C(C)CC[C@H]1C(C)(C)O2 [D9 THCA, delta-9-tetrahydrocannabinolic acid] : ____
Ans. 1.25

Qu. Please look up its Stability of Cannabinoids in AB Red: CCCCCc1cc(O)c2c(c1)OC(C)(CCC=C(C)C)C=C2 (stereo not drawn) [CBC, cannabichromene]
Ans. 0.267

Qu. GET /values?readout=Stability of Cannabinoids in AB Red&item= CCCCCc1cc(O)c2c(c1)OC(C)(C)[C@@H]1CCC(C)=C[C@@H]21 [D9 THC, delta-9-tetrahydrocannabinol, reference compound]
Ans. 12.0

Qu. Please report the recorded Stability of Cannabinoids in AB Red for CCCCCc1cc(O)c2c(c1)OC1(C)CCC3C1C2C3(C)C (stereo not drawn) [CBL, cannabicyclol] .
Ans. 0.468

Qu. Consider the molecule C=C(C)[C@@H]1CCC(C)=C[C@H]1c1c(O)cc(CCCCC)c(C(=O)O)c1O [CBDA, cannabidiolic acid] and give its measured Stability of Cannabinoids in AB Red.
Ans. 1.55

Qu. I would be grateful if you could share the reported Stability of Cannabinoids in AB Red for CCCCCc1cc(O)c2c(c1)OC(C)(C)c1ccc(C)cc1-2 [CBN, cannabinol] .
Ans. 2.62
